Source: the supplement of paper PMC10307832

- Test system: COR-L 105
- Assay protocol: relative viability (nuclei count vs DMSO), 5 days (fraction); higher = more cells survive
- Experimental context: first compound 0.1 µM

Compound	System under test	relative viability
Cc1cn(-c2cc(NC(=O)c3ccc(C)c(Nc4nccc(-c5cccnc5)n4)c3)cc(C(F)(F)F)c2)cn1 [Nilotinib] + C[C@@H](Oc1cc(-c2cnn(C3CCNCC3)c2)cnc1N)c1c(Cl)ccc(F)c1Cl [Crizotinib] (partner 1 µM)	COR-L 105	0.662
Cc1cn(-c2cc(NC(=O)c3ccc(C)c(Nc4nccc(-c5cccnc5)n4)c3)cc(C(F)(F)F)c2)cn1 [Nilotinib] + COc1cccc2cc(-c3nc([C@H]4CC[C@H](C(=O)O)CC4)n4ncnc(N)c34)[nH]c12 [OSI-027] (partner 0.5 µM)	COR-L 105	0.586
Cc1cn(-c2cc(NC(=O)c3ccc(C)c(Nc4nccc(-c5cccnc5)n4)c3)cc(C(F)(F)F)c2)cn1 [Nilotinib] + C[C@]1(O)C[C@@H](c2nc(-c3ccc4ccc(-c5ccccc5)nc4c3)c3c(N)nccn32)C1 [Linsitinib] (partner 1 µM)	COR-L 105	0.823
Cc1cn(-c2cc(NC(=O)c3ccc(C)c(Nc4nccc(-c5cccnc5)n4)c3)cc(C(F)(F)F)c2)cn1 [Nilotinib] + Cc1nc(Nc2ncc(C(=O)Nc3c(C)cccc3Cl)s2)cc(N2CCN(CCO)CC2)n1 [Dasatinib] (partner 0.075 µM)	COR-L 105	0.222
Cc1cn(-c2cc(NC(=O)c3ccc(C)c(Nc4nccc(-c5cccnc5)n4)c3)cc(C(F)(F)F)c2)cn1 [Nilotinib] + Cc1cc(Nc2cc(N3CCN(C)CC3)nc(Sc3ccc(NC(=O)C4CC4)cc3)n2)n[nH]1 [Tozasertib] (partner 0.1 µM)	COR-L 105	0.317
Cc1cn(-c2cc(NC(=O)c3ccc(C)c(Nc4nccc(-c5cccnc5)n4)c3)cc(C(F)(F)F)c2)cn1 [Nilotinib] + N=C(N)NC(=N)NCCc1ccccc1 [Phenformin] (partner 250 µM)	COR-L 105	0.438
